// provenance: patent US7517517B2

Test system: cloned rat mGlu1 receptor (Rattus norvegicus, UniProt P23385)
Construct: expressed in transfected cells; host or cells: CHO cells
Sequence (P23385 19-1199): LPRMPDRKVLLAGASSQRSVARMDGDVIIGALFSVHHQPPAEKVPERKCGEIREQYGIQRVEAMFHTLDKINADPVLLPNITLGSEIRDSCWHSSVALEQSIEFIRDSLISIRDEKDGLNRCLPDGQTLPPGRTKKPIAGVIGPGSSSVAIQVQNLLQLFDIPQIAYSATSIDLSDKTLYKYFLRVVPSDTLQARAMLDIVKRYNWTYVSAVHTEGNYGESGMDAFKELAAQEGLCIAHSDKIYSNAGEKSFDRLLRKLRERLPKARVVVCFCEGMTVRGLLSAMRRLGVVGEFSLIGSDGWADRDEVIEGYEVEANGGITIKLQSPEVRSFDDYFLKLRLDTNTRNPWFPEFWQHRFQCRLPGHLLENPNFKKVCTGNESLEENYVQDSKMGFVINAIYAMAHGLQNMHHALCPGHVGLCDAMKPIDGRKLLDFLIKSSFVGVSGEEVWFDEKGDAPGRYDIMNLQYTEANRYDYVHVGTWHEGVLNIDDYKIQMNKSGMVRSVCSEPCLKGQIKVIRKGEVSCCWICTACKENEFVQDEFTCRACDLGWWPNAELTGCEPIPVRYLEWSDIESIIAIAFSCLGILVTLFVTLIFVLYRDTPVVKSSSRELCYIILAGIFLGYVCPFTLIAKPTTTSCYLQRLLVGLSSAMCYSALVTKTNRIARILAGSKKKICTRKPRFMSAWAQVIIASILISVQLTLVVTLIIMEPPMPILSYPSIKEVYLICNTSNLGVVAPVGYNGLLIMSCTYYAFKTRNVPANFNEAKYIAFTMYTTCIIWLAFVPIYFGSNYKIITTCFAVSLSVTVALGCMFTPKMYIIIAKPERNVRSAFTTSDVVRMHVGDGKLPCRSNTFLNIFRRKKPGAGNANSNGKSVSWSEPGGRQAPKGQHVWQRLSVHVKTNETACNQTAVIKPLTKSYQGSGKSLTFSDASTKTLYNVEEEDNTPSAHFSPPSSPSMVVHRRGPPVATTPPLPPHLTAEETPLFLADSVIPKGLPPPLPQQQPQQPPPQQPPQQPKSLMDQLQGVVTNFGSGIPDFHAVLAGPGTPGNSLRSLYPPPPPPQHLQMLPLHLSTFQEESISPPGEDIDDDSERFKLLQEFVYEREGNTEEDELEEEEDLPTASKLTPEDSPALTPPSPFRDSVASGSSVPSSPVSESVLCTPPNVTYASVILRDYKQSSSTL
Assay notes: Signal transduction at the cloned rat mGlu1 receptor in CHO cells (glutamate-induced Ca2+ rise, FLIPR)
Type: cell-based
Setup conditions: 50% inhibition of the glutamate-induced intracellular Ca2+ rise; CHO cells, FLIPR
Task for the reader: assign each of the following molecules its reported IC50.
I only need the number, in nM, no unit after it.

# IC50 of CCc1cc2cc(C(=O)Cc3ccccc3)ccc2nc1C = 9.77

# IC50 of CO[C@H]1CC[C@@H](C(=O)c2ccc3nc4c(cc3c2)CCS4)CC1 = 2.59

# IC50 of CCc1cc2cc(C(=O)C3CCC(OC)CC3)c(C)cc2nc1Cl (stereo not drawn) = 4.84

# IC50 of Cc1cc2nc3c(cc2cc1C(=O)Cc1ccccc1)CCCO3 = 5.37

# IC50 of O=C(CC1CC2CCC1C2)c1ccc2nc3c(cc2c1)CCCO3 (stereo not drawn) = 9.44

# IC50 of COC1CCC(C(=O)c2ccc3nc4c(cc3c2)CCCS4)CC1 (stereo not drawn) = 4.68

###

Task for the reader: assign each of the following compounds its reported IC50.
Test system: cloned rat mGlu1 receptor (Rattus norvegicus, UniProt P23385)
Construct: expressed in transfected cells; host or cells: CHO cells
Assay notes: Signal transduction at the cloned rat mGlu1 receptor in CHO cells (glutamate-induced Ca2+ rise, FLIPR)
Assay type: cell-based
Setup conditions: inhibition of glutamate-induced intracellular Ca2+ rise, CHO cells expressing mGlu1 receptor; compounds with pIC50 between 7 and 8
I only need the number, in µM, no unit after it.

# IC50 of CCCc1cc2cc(C(=O)Cc3ccccc3)ccc2nc1C = 0.0871

# IC50 of CO[C@H]1CC[C@@H](C(=O)c2ccc3nc(C)c(CN(C)C)cc3c2)CC1 = 0.049

# IC50 of O=C(c1ccc2nc3c(cc2c1)CCCO3)C1CC=CCC1 (centres unmarked) = 0.0417

# IC50 of CCc1cc2cc(C(=O)[C@H]3CC[C@H](OC)CC3)c(C)cc2[nH]c1=O = 0.02

# IC50 of CCCO[C@H]1CC[C@@H](C(=O)c2ccc3nc(C)c(CC)cc3c2)CC1 = 0.0589

# IC50 of CCc1cc2cc(C(=O)C3CCC(OC)CC3)ccc2nc1NC(=O)C1CCN(C(C)=O)CC1 (centres unmarked) = 0.0389

# IC50 of CCc1cc2cc(C(=O)Cc3ccccc3)ccc2nc1Cl = 0.0447

# IC50 of CCc1cc2cc(C(=O)C3CCC(OC)CC3)ccc2n2nnnc12 (centres unmarked) = 0.0437

# IC50 of CCc1cc2cc(C(=O)[C@H]3CC[C@H](OC)CC3)ccc2nc1C = 0.0646

# IC50 of CC1(C(=O)c2ccc3nc4c(cc3c2)CCCO4)CC2CCC1C2 (centres unmarked) = 0.0295

# IC50 of CCc1cc2cc(C(=O)C3CCC(OC)CC3)ccc2nc1NC(=O)Nc1ccccc1SC (centres unmarked) = 0.0562

# IC50 of CCc1cc2cc(C(=O)[C@H]3CC[C@@H](OC)CC3)ccc2nc1N(C)C = 0.0302

# IC50 of O=C(Cc1ccccc1)c1ccc2nc3c(cc2c1)CCCCC3 = 0.0355

# IC50 of CCc1cc2cc(C(=O)C3(F)CCC(OC)CC3)ccc2nc1Cl (single isomer, unassigned) [Compound 221] = 0.0617

# IC50 of O=C(c1ccc2nc3c(cc2c1)CCCS3)C1COc2ccccc2O1 (centres unmarked) = 0.0741

# IC50 of CCc1cc2cc(C(=O)C3(c4ccccc4)CC3)ccc2nc1C = 0.0955

# IC50 of O=C(Cc1ccc(Br)cc1)c1ccc2nc3c(cc2c1)CCCO3 = 0.0166

# IC50 of O=C(Cc1ccccc1)c1ccc2nc3c(cc2c1)CCC3 = 0.0275

# IC50 of CCc1cc2cc(C(=O)C3CCC(OC)CC3)ccc2nc1NC(=O)C1CCCCC1 (centres unmarked) = 0.0302

# IC50 of CCc1cc2cc(C(=O)C3CC4CC3CC4O)ccc2nc1Cl (centres unmarked) = 0.0457

# IC50 of O=C(c1ccc2nc3c(cc2c1)CCCS3)C1CC2CCC1C2 (centres unmarked) = 0.0234

# IC50 of CCc1cc2cc(C(=O)C3CCCC(OC)C3)ccc2nc1C (centres unmarked) = 0.0214

# IC50 of CCCc1cc2cc(C(=O)CC3CC4CCC3C4)ccc2nc1C (centres unmarked) = 0.0776

# IC50 of O=C(Cc1ccccc1)c1ccc2nc3sccc3cc2c1 = 0.0126

# IC50 of CCc1cc2cc(C(=O)C3CCC(OC)CC3)ccc2nc1NC(=O)CCSC (centres unmarked) = 0.0123

# IC50 of O=C(c1ccc2nc3c(cc2c1)CCCO3)C1CC2CCC1O2 (centres unmarked) [Compound 457] = 0.0724
